Items are presented alongside their recorded kon.
- MEASURED_ON: T1, hCD47-ECD/Fc protein (Sinobiological) (human, UniProt Q08722 19-139, biotinylated in the Octet assay, sites not stated)
- T1 construct: extracellular domain; Bought protein; also called human CD47-Fc antigen; recombinant hCD47-ECD/Fc; not shown: Fc part of the bought fusion protein
- TEST_SUMMARY: BLI (Octet RED96), biotin-hCD47-ECD/Fc on SA sensors, 1:1 model;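 also: test antibodies as analytes, 300 s association then 300 s dissociation in running buffer, with benchmark reference antibodies run as controls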
Kindly provide the numeric value in M⁻¹ s⁻¹ only, without the unit symbol.

TY25039 (antibody, V domains shown) VH: QVQPAQSGAEVKKPGSSVKVSCKASGYSISSGYYWGWIRQAPGQGLEWIGAISYSGSTYYSPSLKSRVTITADKSTSTAYMELSSLRSEDTAVYYCARHYLFAGSTSYDAFDIWGQGTLVTVSS VL: DIQLTQSPSSLSASVGDRVTITCRASQSVDFYGFSFLAWYQQKPGKAPKLLIYDASNRATGIPSRFSGSGSGTDFTLTISSLQPEDFATYYCQQSYRTPLTFGQGTKVEIKR	97300

Requested read-out: kon. Entry: TY25037 (antibody, V domains shown) VH: QVQLVQSGAEVKKPGSSVKVSCKASGYSITSGHYWTWIRQAPGQGLEWIGGIIPVFGTPNYAQKFQGRVTITADKSTSTAYMELSSLRSEDTAVYYCASYGYGGAYFDVWGQGTLVTVSS VL: DIQLTQSPSSLSASVGDRVTITCRASQSVDFHGISFLHWYQQKPGKAPKLLIYDASNRATGIPSRFSGSGSGTDFTLTISSLQPEDFATYYCVQGIQWPWTFGQGTKVEIKR
56000

Requested read-out: kon. Entry: TY25029 (antibody, V domains shown) VH: EVQLVESGGGLVQPGGSLRLSCAASGYTFSNYWIHWVRQAPGKGLEWIGIIYPSSGSTKYAQKFQGRVTISRDNSKNTLYLQLNSLRAEDTAVYYCARDRAPGSSGYYDGFDYWGQGTLVTVSS VL: DIQLTQSPSSLSASVGDRVTITCRASQSVDFHGISFLHWYQQKPGKAPKLLIYDASSLESGVPSRFSGSGSGTDFTLTISSLQPEDFATYYCHQRSTTPLTFGQGTKVEIKR
417000

Requested read-out: kon. Entry: TY25034 (antibody, V domains shown) VH: EVQLVESGGGLVQPGGSLRLSCAASGYSITSGHYWNWIRQAPGKGLEWIGIISPSGGGTKYAQKFQGRVTISRDNSKNTLYLQLNSLRAEDTAVYYCARGARGYYALDYWGQGTLVTVSS VL: EIVLTQSPATLSLSPGERATLSCRASQSVRGRLLAWYQQKPGQAPRLLIYAASSLQSGVPARFSGSGSGTDFTLTISSLEPEDFAVYYCAQYLELPYTFGQGTKVEIKR
813000

Requested read-out: kon. Entry: TY25031 (antibody, V domains shown) VH: EVQLVESGGGLVQPGGSLRLSCAASGYSITSGYHWGWIRQAPGKGLEWIGRIYPSSGSTKYAQKFQGRVTISRDNSKNTLYLQLNSLRAEDTAVYYCARGVRGSYGWFDVWGQGTLVTVSS VL: DIQLTQSPSSLSASVGDRVTITCSASSRVSYVYWYQQKPGKAPKLLIYAASTLQSGVPSRFSGSGSGTDFTLTISSLQPEDFATYYCQHYVSSPRVYTFGQGTKVEIKR
168000
